Just for reference, PubChem BioAssay is where these values come from.

experiment: small-molecule microarray binders of probe aLefty2, primary screen, biochemical, biotinylated probe, 635/667 nm fluorescence (AID 1094); conditions: higher = more signal;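 also: score merges spot fluorescence near 667 nm with spot signal-to-noise ratio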
Assignment: determine reported composite z-score for the given compounds.
Numbers only.

>>> print(df.to_string())
                                   compound           property  numericreadout
0  COc1ccc(-c2cnnc(CCCn3ccnc3-c3ccccc3)n2)cc1  composite z-score          -0.125

# batch: return composite z-score for each of the 4 compounds below
1. COc1ccc(OC[C@H]2CN3[C@@H](CC[C@@H](C)[C@@H]3c3ccc(Br)cc3)C(=O)O2)cc1
2. CC(C)CN1CCc2nc(-c3ccccc3)c3c(c2C1)CO[C@@H](C)C3
3. C=CCOCC1CN2[C@@H](CC[C@@H](C)[C@@H]2c2ccc(Br)cc2)C(=O)O1 (stereo partly specified)
4. COc1cccc([C@H](O)Cn2cc(-c3ccc(CON=C(C)C)cc3)nn2)c1

A:
1: -0.198; 2: -0.145; 3: -0.296; 4: -0.0561
